Target: T1, interleukin 18 binding protein (IL-18BP) (UniProt O95998 31-194)
T1 sequence (looked up): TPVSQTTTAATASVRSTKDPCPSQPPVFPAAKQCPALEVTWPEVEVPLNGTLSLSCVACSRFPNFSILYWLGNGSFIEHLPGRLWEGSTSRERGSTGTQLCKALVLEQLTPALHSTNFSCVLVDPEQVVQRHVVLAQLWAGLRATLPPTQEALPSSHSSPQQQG
Assay: cell-based or functional assay
Listing: Ratio (-BP/+BP), DF-100,000 of selected binders
Reply briefly: the number, and no unit.

Illustrative cases are given below, each with its answer.
IL-18 variant K53S, S55F, T63S, R104K, H109Y (ligand) YFGKLESKLSVIRNLNDQVLFIDQGNRPLFEDMTDSDMRDNAPRTIFIISMYSDFQPRGMAVSISVKSEKISTLSSENKIISFKEMNPPDNIKDTKSDIIFFQKSVPGYDNKMQFESSSYEGYFLASEKERDLFKLILKKEDELGDRSIMFTVQNED = 1
IL-18 variant K53D, S55E (ligand) YFGKLESKLSVIRNLNDQVLFIDQGNRPLFEDMTDSDMRDNAPRTIFIISMYDDEQPRGMAVTISVKSEKISTLSSENKIISFKEMNPPDNIKDTKSDIIFFQRSVPGHDNKMQFESSSYEGYFLASEKERDLFKLILKKEDELGDRSIMFTVQNED = 1.07
IL-18 variant K53D, S55L (ligand) YFGKLESKLSVIRNLNDQVLFIDQGNRPLFEDMTDSDMRDNAPRTIFIISMYDDLQPRGMAVTISVKSEKISTLSSENKIISFKEMNPPDNIKDTKSDIIFFQRSVPGHDNKMQFESSSYEGYFLASEKERDLFKLILKKEDELGDRSIMFTVQNED = 1.03
IL-18 variant T34E, N41D, K53N, S55R (ligand) YFGKLESKLSVIRNLNDQVLFIDQGNRPLFEDMEDSDMRDDAPRTIFIISMYNDRQPRGMAVTISVKSEKISTLSSENKIISFKEMNPPDNIKDTKSDIIFFQRSVPGHDNKMQFESSSYEGYFLASEKERDLFKLILKKEDELGDRSIMFTVQNED = 0.74
IL-18 variant T34S, S36Y, D37N, D40E, N41Q, K53Y, S55I (ligand) YFGKLESKLSVIRNLNDQVLFIDQGNRPLFEDMSDYNMREQAPRTIFIISMYYDIQPRGMAVTISVKSEKISTLSSENKIISFKEMNPPDNIKDTKSDIIFFQRSVPGHDNKMQFESSSYEGYFLASEKERDLFKLILKKEDELGDRSIMFTVQNED = 0.96
IL-18 variant K53D, S55Q, P107M (ligand) YFGKLESKLSVIRNLNDQVLFIDQGNRPLFEDMTDSDMRDNAPRTIFIISMYDDQQPRGMAVTISVKSEKISTLSSENKIISFKEMNPPDNIKDTKSDIIFFQRSVMGHDNKMQFESSSYEGYFLASEKERDLFKLILKKEDELGDRSIMFTVQNED = 0.97

--- query ---
# binder IL-18 variant K53G, S55I, R104K, P107Y (ligand) YFGKLESKLSVIRNLNDQVLFIDQGNRPLFEDMTDSDMRDNAPRTIFIISMYGDIQPRGMAVTISVKSEKISTLSSENKIISFKEMNPPDNIKDTKSDIIFFQKSVYGHDNKMQFESSSYEGYFLASEKERDLFKLILKKEDELGDRSIMFTVQNED ; its Ratio (-BP/+BP), DF-100,000 = 1
